# tested-on: rat brain monoamine oxidase-B (Rattus norvegicus, UniProt P19643)
# Construct: appropriately diluted homogenates of rat brain or liver; from tissue; host or cells: rat brain or liver homogenate
# Sequence (P19643 1-520): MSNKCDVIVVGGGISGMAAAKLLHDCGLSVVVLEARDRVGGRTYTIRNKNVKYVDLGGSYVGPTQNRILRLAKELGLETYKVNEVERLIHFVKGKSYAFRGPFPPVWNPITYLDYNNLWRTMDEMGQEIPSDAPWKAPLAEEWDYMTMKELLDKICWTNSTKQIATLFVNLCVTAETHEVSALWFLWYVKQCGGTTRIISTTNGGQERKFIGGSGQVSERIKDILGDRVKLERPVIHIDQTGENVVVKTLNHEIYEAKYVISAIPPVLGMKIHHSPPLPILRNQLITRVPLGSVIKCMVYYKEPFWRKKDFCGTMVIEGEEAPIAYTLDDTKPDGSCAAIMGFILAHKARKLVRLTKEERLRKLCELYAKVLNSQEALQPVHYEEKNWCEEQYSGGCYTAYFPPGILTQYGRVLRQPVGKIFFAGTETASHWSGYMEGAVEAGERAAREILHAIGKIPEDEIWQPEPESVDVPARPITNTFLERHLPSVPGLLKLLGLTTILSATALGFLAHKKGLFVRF
# measurement-notes: Monoamine oxidase-B inhibiting activity in vitro (radiochemical, β-phenylethylamine substrate, rat brain homogenate)
# Type: biochemical
# measurement-context: 1 × 10^-5 M
Kindly supply the reported inhibition at 10 µM values for the records listed here.
Numbers only, in %.

Field: example entries. Status: answers known.
>  <compound>
NNCCc1ccccc1 [phenelzine, 1-(2-phenyl) ethylhydrazine, reference compound]

>  <recorded-value>
100

$$$$
>  <compound>
C#CCN(CCc1ccccc1)NC(C)=O

>  <recorded-value>
71.3

$$$$

Consider the compound C#CCN(N)CCc1ccccc1 and give its measured inhibition at 10 µM.
97.9

Source listed as patent US6060516A.
